# Procedure text: Absorption and emission properties of HBR-binding PYP variants in presence of HBR
# Type: physicochemical
# Condition summary: variant with HBR
Entries and their Extinction coefficient values follow.

Worked examples, 3 molecules total:
1. Clone 5: fluorescent HBR-binding PYP variant, SEQ ID NO: 5, residues 94-101 WRIPTECA (protein, Functional derivative of SEQ ID NO: 48 - Clone 5) MEHVAFGSEDIENTLAKMDDGQLDGLAFGAIQLDGDGNILQYNAAEGDITGRDPKQVIGKNFFKDVAPGTDSPEFYGKFKEGVASGNLNTMFEWRIPTECAPTKVKVHMKKALSGDSYWVFVKRV    47,000 M^−1cm^−1
2. Clone 6: fluorescent HBR-binding PYP variant, SEQ ID NO: 6, residues 94-101 WLIPTRNA (protein, Functional derivative of SEQ ID NO: 48 - Clone 6) MEHVAFGSEDIENTLAKMDDGQLDGLAFGAIQLDGDGNILQYNAAEGDITGRDPKQVIGKNFFKDVAPGTDSPEFYGKFKEGVASGNLNTMFEWLIPTRNAPTKVKVHMKKALSGDSYWVFVKRV    43,000 M^−1cm^−1
3. Clone 4: fluorescent HBR-binding PYP variant, SEQ ID NO: 4, residues 94-101 WDIPTNPE (protein, Functional derivative of SEQ ID NO: 48 - Clone 4) MEHVAFGSEDIENTLAKMDDGQLDGLAFGAIQLDGDGNILQYNAAEGDITGRDPKQVIGKNFFKDVAPGTDSPEFYGKFKEGVASGNLNTMFEWDIPTNPEPTKVKVHMKKALSGDSYWVFVKRV    41,000 M^−1cm^−1

With those in mind, consider the next molecule.
Consider Clone 3: best fluorescent HBR-binding PYP variant, SEQ ID NO: 3, residues 94-101 WMIPTSRG (protein, Functional derivative of SEQ ID NO: 48 - Clone 3) MEHVAFGSEDIENTLAKMDDGQLDGLAFGAIQLDGDGNILQYNAAEGDITGRDPKQVIGKNFFKDVAPGTDSPEFYGKFKEGVASGNLNTMFEWMIPTSRGPTKVKVHMKKALSGDSYWVFVKRV . Its measured Extinction coefficient is 44,000 M^−1cm^−1
